PARAMETER: melting point (°C)

>>> print(df.to_string())
                                   compound      parameter  test_value
0  Cc1cc(OCC(=O)Nc2ccc3c(c2)c(=O)ncn3-c2ccccc2)ccc1Cl  melting point         255
1  Cc1cccc(-n2cnc(=O)c3cc([N+](=O)[O-])ccc32)c1  melting point         185
2  Cc1cccc(-n2cnc(=O)c3cc(NC(=O)COc4ccc(Cl)c(C)c4)ccc32)c1  melting point         269
3  Cc1cccc(-n2c(C)nc(=O)c3cc(NC(=O)COc4ccc(Cl)c(C)c4)ccc32)c1 [11f]  melting point         290
4  Cc1cc(OCC(=O)Nc2ccc3c(c2)c(=O)nc(C)n3-c2ccccc2)ccc1Cl [11c]  melting point         271
5  Cc1nc(=O)c2cc(NC(=O)CCl)ccc2n1-c1ccccc1 [10a]  melting point         285
